# Assay system: PD-1/PD-L1 interaction (Homo sapiens)
# Construct: expressed in transfected cells; host or cells: CHO cells (aAPC-PD-L1) co-cultured with Jurkat cells overexpressing PD-1 and an NFAT-luciferase reporter
# Sequence (Q9NZQ7 19-290): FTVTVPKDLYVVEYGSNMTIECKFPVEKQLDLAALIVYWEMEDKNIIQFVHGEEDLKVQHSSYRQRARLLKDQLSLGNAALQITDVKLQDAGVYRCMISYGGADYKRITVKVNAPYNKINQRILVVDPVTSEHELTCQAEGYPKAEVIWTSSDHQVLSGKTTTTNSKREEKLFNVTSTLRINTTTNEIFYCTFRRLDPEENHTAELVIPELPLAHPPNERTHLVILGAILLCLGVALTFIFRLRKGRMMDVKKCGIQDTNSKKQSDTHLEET
# Assay summary: PD-1/PD-L1 NFAT reporter co-culture assay
# Format: cell-based
# Stated conditions: Jurkat PD-1 NFAT-luciferase cells co-cultured with aAPC-PD-L1 CHO cells, 6 hrs at 37° C.; read-out: EC50 NFAT Luciferase
Assignment: determine reported pEC50 for the given molecules.
In textbook form, pEC50 equals minus log to base ten of the concentration in mol/L.

// query pEC50 value for entry "COc1nc(-c2cccc(-c3cccc(-c4ccc5c(C[N+](C)(C)C)c[nH]c5c4)c3Cl)c2Cl)ccc1CNC[C@@H]1CCC(=O)N1"
6.27

Thanks! And "COc1nc(O[C@H]2CCc3c(-c4cccc(-c5ccc(C6=N[C@H](C)CN6)c(OC)n5)c4Cl)cccc32)ccc1CN[C@@](C)(CO)C(=O)O" ?
6.67

Same thing, different molecule: "COc1nc(O[C@H]2CCc3c(-c4cccc(-c5ccc(CN6CC7(CCC(=O)N7)C6)cc5)c4Cl)cccc32)c(Cl)cc1CN1CC2(CCC(=O)N2)C1"
5.68

Another: "COc1nc(-c2cccc(-c3cccc4c3CC[C@@H]4Oc3nc(OCc4cncc(C#N)c4)c(CN[C@@](C)(CO)C(=O)O)cc3Br)c2Cl)ccc1CNC[C@@H]1CCC(=O)N1"
8.00

Also "COc1cc(C(=O)N2CCc3c(-c4cccc5c4CCN5C(=O)c4ccc(CNC[C@@H](O)CC(=O)O)c(OC)c4)cccc32)ccc1CNC[C@@H](O)CC(=O)O" ?
4.61

Next molecule up: "COc1nc(O[C@H]2CCc3c(-c4cccc(-c5ccc(CNC[C@@H]6CCC(=O)N6)c(OCC#N)n5)c4Cl)cccc32)c(Cl)cc1CNC[C@@H]1CCC(=O)N1"
7.62

Then "COc1nc(O[C@H]2CCc3c(-c4cccc(-c5ccc(CNC[C@@H]6CCC(=O)N6)cc5)c4Cl)cccc32)c(Cl)cc1CN1CCCC[C@H]1C(=O)O" ?
7.46

Try "Cc1c(COc2cc(OCc3cncc(C#N)c3)c(CN3CC[C@@H](O)C3)cc2Cl)cccc1-c1cccc(-c2ccc(CNCCCCC(=O)O)cc2)c1C" next.
6.32

Can you handle "Cc1c(COc2nc(OCc3cncc(C#N)c3)c(CN[C@@](C)(CO)C(=O)O)cc2Cl)cccc1-c1cccc(-c2ccc(OCCNCCO)cc2)c1C" next?
6.80

Query "Cc1c(COc2cc(OCc3cncc(C#N)c3)c(CN[C@@](C)(CO)C(=O)O)cc2Cl)cccc1-c1cccc(-c2ccc3c(c2)CC[C@H]3N(C)C)c1C" next
6.72

What would you report for "COc1nc(OCc2cccc(-c3cccc(COc4nc(OC)c(CN[C@H]5CCCC[C@H]5O)cc4Cl)c3C)c2C)c(Cl)cc1CN[C@H]1CCCC[C@H]1O" ?
6.07

The origin of these recorded values is patent US12590062B2.
